test_method_notes: Dissociation constant, pKa of the compound
Assay type: physicochemical
property_name: pKa
Please reply with the value in numeric form only.

molecule	property_name	measurement
COC(=O)N(COC(=O)[C@@H](C)c1ccc2cc(OC)ccc2c1)c1ccc(OC)cc1	pKa	4.2
COC(=O)N(C)COC(=O)C(C)c1ccc(CC(C)C)cc1 (configuration not stated)	pKa	4.41
COC(=O)N(C)COC(=O)[C@@H](C)c1ccc2cc(OC)ccc2c1	pKa	4.2
COC(=O)N(COC(=O)[C@@H](C)c1ccc2cc(OC)ccc2c1)c1ccccc1	pKa	4.2
CCOC(=O)c1ccc(N(COC(=O)[C@@H](C)c2ccc3cc(OC)ccc3c2)C(=O)OC)cc1	pKa	4.2

In: Give the measured pKa of "CCn1cc(C(=O)OCN(C)C(=O)OC)c(=O)c2ccc(C)nc21" .
Out: 6

In: Give the measured pKa of "COC(=O)N(C)COC(=O)Cc1c(C)n(C(=O)c2ccc(Cl)cc2)c2ccc(OC)cc12" .
Out: 4.5

###

test_method_notes: Stability in aqueous buffer assessed as hydrolysis half life
Type: physicochemical
Label YES when half-life is strictly below 50 min; at or above that, label NO.

molecule	label
COC(=O)N(COC(=O)[C@@H](C)c1ccc2cc(OC)ccc2c1)c1ccccc1	NO

In: Does this molecule meet the criterion half-life < 50 min? COC(=O)N(C)COC(=O)C(C)c1ccc(CC(C)C)cc1 (configuration not stated)
Out: YES

In: Does this molecule meet the criterion half-life < 50 min? "CCOC(=O)c1ccc(N(COC(=O)[C@@H](C)c2ccc3cc(OC)ccc3c2)C(=O)OC)cc1"
Out: NO

In: Does this molecule meet the criterion half-life < 50 min? "CCn1cc(C(=O)OCN(C)C(=O)OC)c(=O)c2ccc(C)nc21"
Out: YES

In: Does this molecule meet the criterion half-life < 50 min? "COC(=O)N(C)COC(=O)Cc1c(C)n(C(=O)c2ccc(Cl)cc2)c2ccc(OC)cc12"
Out: YES

In: Does this molecule meet the criterion half-life < 50 min? "COC(=O)N(C)COC(=O)[C@@H](C)c1ccc2cc(OC)ccc2c1"
Out: YES

###

test_method_notes: Solubility in isopropyl myristate
Type: physicochemical
property_name: solubility

In: Give the measured solubility of "COC(=O)N(C)COC(=O)[C@@H](C)c1ccc2cc(OC)ccc2c1" .
Out: 5.16 mM

###

test_method_notes: Permeability across hairless mouse skin from isopropyl myristate
Format: ADME, tissue-based, Zone of skin
run_parameters: read-out: permeability (converted)
property_name: Papp (×10⁻⁶ cm/s)
The answer is to be given in ×10⁻⁶ cm/s; state only the numeric part.

In: Give the measured Papp of "COC(=O)N(C)COC(=O)[C@@H](C)c1ccc2cc(OC)ccc2c1" .
Out: 5.28
